assay: Human HepG2 cell viability assay in 384 well format; format: toxicity, cell-based; design: dose 125 nL, time 70.5 hour; concentration not given beside the values; settings: HepG2 cells, read-out: Inhibition
Please use 1.0 whenever cytotoxicity at 70.5 h is not below -10%, and 0.0 whenever it is.

Would you please look over these solved cases?
> print(dat)
                                   compound  qualitative.label
1  O=C(CNC1CCc2ncnn2C1)N(Cc1cccs1)C1CC1 (stereo not given)                1.0
2  CN(C)C(=O)CN1C[C@@H]2OCCN(c3ncc(F)cn3)[C@@H]2C1                1.0
3  O=C(NCC1CCS(=O)(=O)C1)c1cccc(CN2CCCC2)c1 (stereo not given)                0.0

// inclusive: cytotoxicity at 70.5 h at least -10%? input: "CN1[C@H](CN2CCCC2)C[C@@H]2CN(C(=O)Cc3ccsc3)CC[C@@H]21"
0.0

// inclusive: cytotoxicity at 70.5 h at least -10%? input: CCc1nc(C2CCCN2C(=O)c2ccc(=O)n(CC)n2)no1 (stereo not given)
1.0
